The following compounds are shown together with reported pIC50 values.
# SYSTEM: Glyceraldehyde-3-phosphate dehydrogenase (Homo sapiens, UniProt P04406)
# Sequence (P04406 whole entry): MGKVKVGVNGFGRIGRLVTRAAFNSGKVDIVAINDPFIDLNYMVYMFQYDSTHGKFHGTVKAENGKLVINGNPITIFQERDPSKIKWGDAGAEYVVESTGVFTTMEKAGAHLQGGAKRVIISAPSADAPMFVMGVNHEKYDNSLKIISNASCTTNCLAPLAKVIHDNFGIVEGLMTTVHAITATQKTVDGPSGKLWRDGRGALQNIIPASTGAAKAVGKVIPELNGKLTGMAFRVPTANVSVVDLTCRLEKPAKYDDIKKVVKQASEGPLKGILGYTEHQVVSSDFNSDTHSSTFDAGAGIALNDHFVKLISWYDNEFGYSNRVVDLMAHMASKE
# ASSAY_NOTES: Inhibition of Glyceraldehyde-3-phosphate dehydrogenase in human erythrocytes.
pIC50: −log10 of the molar value.
MEASURED_ENDPOINT: pIC50

1. CCOc1cccc(C(=O)N[C@@H]2[C@H](O)[C@@H](CO)O[C@H]2n2cnc3c(N)ncnc32)c1    3.22
2. Nc1ncnc2c1ncn2[C@@H]1O[C@H](CO)[C@@H](O)[C@H]1O [ADENOSINE]    1.46

* * *

# ASSAY_NOTES: TInhibition of glyceraldehyde-3-phosphate dehydrogenase in Leishmania mexicana
MEASURED_ENDPOINT: IC50 (mM)

1. Nc1ncnc2c1ncn2[C@@H]1O[C@H](CO)[C@@H](O)[C@H]1O    50
2. Nc1ncnc2c1ncn2[C@@H]1O[C@H](CO)[C@@H](O)[C@H]1NC(=O)c1ccc2cccnc2c1    0.5

* * *

# ASSAY_NOTES: Inhibition of glyceraldehyde-3-phosphate dehydrogenase in Trypanosoma brucei
MEASURED_ENDPOINT: IC50

1. Nc1ncnc2c1ncn2CCNC(=O)c1cccc(Cl)c1    > 4000 µM
2. CCc1ccc(-c2ccc(C(=O)NC[C@H]3OC(n4cnc5c(N)ncnc54)[C@H](O)[C@@H]3O)cc2)cc1 (some centres undefined)    > 1000 µM
3. COc1cccc(C(=O)N[C@@H]2CCC[C@H]2n2cnc3c(N)ncnc32)c1    > 4000 µM
4. Cc1ccc(C(=O)NCCn2cnc3c(N)ncnc32)cc1    > 2000 µM

* * *

# ASSAY_NOTES: TInhibition of glyceraldehyde-3-phosphate dehydrogenase in Leishmania mexicana
Form field: IC50 (one value per entry).
MEASURED_ENDPOINT: IC50

1. CC(C)COC(=O)N[C@@H]1[C@H](O)[C@@H](CO)O[C@H]1n1cnc2c(N)ncnc21    > 10 mM
2. Nc1ncnc2c1ncn2[C@@H]1CCC[C@H]1NC(=O)c1ccccc1    > 4 mM
3. Nc1ncnc2c1ncn2[C@@H]1CCC[C@H]1NC(=O)c1cccc(Cl)c1    > 2 mM
